Biological target: BTK (Homo sapiens, UniProt Q06187)
Sequence (Q06187 402-655 limits assumed): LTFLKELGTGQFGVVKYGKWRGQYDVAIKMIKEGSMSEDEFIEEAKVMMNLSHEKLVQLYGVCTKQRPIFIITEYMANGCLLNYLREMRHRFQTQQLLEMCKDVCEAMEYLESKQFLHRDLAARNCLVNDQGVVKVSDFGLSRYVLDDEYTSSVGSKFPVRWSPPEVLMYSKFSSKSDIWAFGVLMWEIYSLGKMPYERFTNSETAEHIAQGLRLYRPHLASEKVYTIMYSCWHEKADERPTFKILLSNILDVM
Assay: biochemical
Details: read-out: BTK inhibition (%), 0.75 uM BTK, […] probe 3l, 15 min preincubation
measure.name: inhibition at 10 µM (%)
# value in %; strip the unit string

[
  {
    "compound": "COc1ccc2c(c1)[C@]1(C[C@H]1c1ccc3c(/C=C/c4ccc(CN5C[C@@H](C)O[C@@H](C)C5)cc4)n[nH]c3c1)C(=O)N2",
    "assay.value": 86.9
  },
  {
    "compound": "CC(C)(C)NC(=O)[C@H]1CC[C@H]2[C@@H]3CC[C@H]4NC(=O)C=C[C@]4(C)[C@H]3CC[C@]12C",
    "assay.value": 13.2
  },
  {
    "compound": "COc1ccc2c(c1)c(CC(=O)OCC(=O)O)c(C)n2C(=O)c1ccc(Cl)cc1",
    "assay.value": -19.3
  },
  {
    "compound": "CC(=O)Nc1nc(-c2cccc(NS(=O)(=O)c3cccc4c(N(C)C)cccc34)c2)cs1",
    "assay.value": 97.3
  },
  {
    "compound": "Cn1cc(C2=C(c3cn(C4CCN(Cc5ccccn5)CC4)c4ccccc34)C(=O)NC2=O)c2ccccc21",
    "assay.value": 10.3
  },
  {
    "compound": "CCCCCC/C=C\\CCCCCCCc1cccc(O)c1C(=O)O",
    "assay.value": 84.2
  },
  {
    "compound": "COc1cc([C@H]2OC[C@H]3[C@@H]2CO[C@@H]3c2ccc(O[C@@H]3O[C@H](CO)[C@@H](O)[C@H](O)[C@H]3O)c(OC)c2)ccc1O[C@@H]1O[C@H](CO)[C@@H](O)[C@H](O)[C@H]1O",
    "assay.value": -6.9
  },
  {
    "compound": "C[C@]1(c2nc3c(C(N)=O)cccc3[nH]2)CCCN1",
    "assay.value": -6.2
  },
  {
    "compound": "COc1ccc([C@@H]2CC(=O)c3c(O)cc(O[C@@H]4O[C@H](CO)[C@@H](O)[C@H](O)[C@H]4O[C@@H]4O[C@@H](C)[C@H](O)[C@@H](O)[C@H]4O)cc3O2)cc1",
    "assay.value": 2.3
  },
  {
    "compound": "CCC(=O)O[C@]1(C(=O)SCF)[C@H](C)C[C@H]2[C@@H]3C[C@H](F)C4=CC(=O)C=C[C@]4(C)[C@@]3(F)[C@@H](O)C[C@@]21C",
    "assay.value": 15.2
  }
]

Could you now look at the following compound, please?
Query: Which inhibition at 10 µM value belongs to "O=C1c2ccccc2-c2n[nH]c3cccc1c23" ?
Reply: 18.6
